test: The drug is tested on the gut metagenome community of A-10 with ENA study accession number: PRJEB31790 for biotransformation under microaerobic condition. The drug concentrations were measured over 7 timepoints collected between 0 and 12 hours of incubation by liquid-chromatography-coupled mass spectrometry (LC–MS); assay type: ADME; parameters: dose 5 uM, timepoint 0, 0.75, 1.5, 3, 6, 9, 12 hours; details: 5 µM
QUANTITY KIND: Bacterial Biotransformation

# SMILES INPUT, RESULT
records = [
    ("C[C@H]1C[C@H]2[C@@H]3CCC4=CC(=O)C=C[C@]4(C)[C@@]3(F)[C@@H](O)C[C@]2(C)[C@@]1(O)C(=O)CO", "Compound NOT metabolized"),
    ("C[C@@H]1C[C@H]2[C@@H]3CCC4=CC(=O)C=C[C@]4(C)[C@@]3(F)[C@@H](O)C[C@]2(C)[C@@]1(O)C(=O)CO", "Compound NOT metabolized"),
]
